Test: folding stability dG unfold from chymotrypsin proteolysis; higher = more stable
quantityKind: folding stability dG unfold (kcal/mol)
Numbers only, in kcal/mol.

Recorded folding stability dG unfold, per entry:
{"sequenceCode": "SAGGSAGGSGGKPLLIFTAMNGPEAEELVKKLLEEGGAGPIVAVVIPAPKDDPLFKEFFEKLKSAGGSAGGS [r12_649_TrMRF]", "folding stability dG unfold (kcal/mol)": 1.47}
{"sequenceCode": "SAGGSAGGSAGMVTEESLEIEPGKGLIVRTVTDRRESGIVTETEKTPVSEAEREAIRKALSAGGSAGGSAGG [r11_47_JUSTAS]", "folding stability dG unfold (kcal/mol)": 0.0861}
{"sequenceCode": "SAGMMKFPPGAKIKIVNKETGEEKEITLPEGAEVEFDEETGEVHIRVKVDGKEYRFTFKNGEIVEVEEVSAG [r5_22_TrROS_Hall]", "folding stability dG unfold (kcal/mol)": 4.3}
{"sequenceCode": "MEAEELATTLAAEALAPLPRPFEIDPENNEVRVPGGGELAELPIRVVLVDEDGEIVEERIVPVRIRAEEPGS [r1_318_TrMRF]", "folding stability dG unfold (kcal/mol)": 0.878}
{"sequenceCode": "SAGGSAEKPVRTLEITVTVPPGQPTPEELARALAEELGVEVTRVEVVRVERNEDGELTVTVRVEVKSAGGSA [r15_654_TrROS_Hall]", "folding stability dG unfold (kcal/mol)": 2.5}

# per-item lookup of folding stability dG unfold; items listed below
1. SAGGSAGGSAGKKIKVKIEVVYTDEDGNKHKVEMEKEIELKPGDKITLPPEAITRVEILPSAGGSAGGSAGG [r11_664_TrROS_Hall]
2. SAGGSAGGSAGGAKKAIEEAIKAGYLPYEDPESGKIHFYFPTPDGTIHKLTLFVAPEEESAGGSAGGSAGGS [r10_1173_TrMRF]

Result ::
[1.95, 0.711]
